tested on: OVCAR-5 ovarian; assay: NCI tumour cell line growth inhibition, 48 h
Response key: met means TGI >= 20 µM; not met means TGI < 20 µM.

C/C=C/C/C=C/CCC(=O)[C@H]1O[C@H]1C(N)=O; met
Cc1c(C#N)c2ccccc2c2nc3ccccc3n12; met
COc1ccc(C2CC(c3cccc(Nc4ccncc4)c3)=NN2c2ccc(Cl)cc2)cc1 (stereo unspecified); not met
CN(CCCCCl)P(=O)(OCc1ccc([N+](=O)[O-])o1)OCC1OC(n2ccc(N)nc2=O)C(F)(F)C1O (stereo unspecified); met
O=c1[nH]c2ccc(Cl)cc2c2oc(-c3ccccc3)nc12; met

input: Test whether the compound Cc1ccccc1C1OC(=O)c2ccccc21 (stereo unspecified) records TGI of 20 µM or higher.
output: met

input: Test whether the compound CC(C)C[C@H](NC(=O)[C@H](Cc1ccccc1)NC(=O)CCc1ccccc1)B(O)O records TGI of 20 µM or higher.
output: not met

input: Test whether the compound CCOc1ccc(NC(=O)C2=C(C)NC(C)=C(C(=O)Nc3ccc(OCC)cc3)C2c2ccc(O)c(OC)c2)cc1 records TGI of 20 µM or higher.
output: met

input: Test whether the compound O=C(Nc1ccc(F)cc1)Nc1ccccc1CNc1nc(Nc2ccc(OCCN3CCCC3)cc2)ncc1Cl records TGI of 20 µM or higher.
output: not met

input: Test whether the compound COC(=O)C1CCOC(C)N1C(=O)OC(C)(C)C (stereo unspecified) records TGI of 20 µM or higher.
output: met

input: Test whether the compound Cc1ccc2c(c1)c1nc3cc(C)c(C)cc3nc1n2CCN(C)C records TGI of 20 µM or higher.
output: not met

input: Test whether the compound CC1=NNC(=O)C1C1CC(c2c[nH]c3ccccc23)=NNC1=S (stereo unspecified) records TGI of 20 µM or higher.
output: met

###

test system: T-47D breast; experiment: NCI tumour cell line growth inhibition, 48 h
Response key: 1.0 means TGI >= 30 µM; 0.0 means TGI < 30 µM.

// below: answered compounds
Cc1cc2cc3cc(C)c(N(C)C)cc3[n+](C)c2cc1N(C)C; 1.0
O=C1N(c2ccccc2)C2(c3ccccc3)CC3CCCC13S2 (stereo not given); 1.0
CC(C)(O)C#Cc1ccc(/C=C/C(=O)c2ccccc2)s1; 1.0
Cc1ccc(O)c(C(c2ccc([N+](=O)[O-])cc2)c2cc(C)ccc2O)c1; 1.0

input: Test whether the compound c1ccc2c(c1)Nc1ccccc1[P+]21c2ccccc2Nc2ccccc21 records TGI of 30 µM or higher.
output: 0.0

input: Test whether the compound O=c1[nH]c2ccc(Cl)cc2c2oc(-c3ccccc3)nc12 records TGI of 30 µM or higher.
output: 1.0

input: Test whether the compound CCN1C=C/C(=C\C=C/c2cc[n+](CC)c3ccccc23)c2ccccc21 records TGI of 30 µM or higher.
output: 0.0

input: Test whether the compound CC1=NNC(=O)C1C1CC(c2c[nH]c3ccccc23)=NNC1=S (stereo not given) records TGI of 30 µM or higher.
output: 1.0

input: Test whether the compound N#CC(c1nc2ccccc2s1)c1ncnc(Cl)c1[N+](=O)[O-] (stereo not given) records TGI of 30 µM or higher.
output: 1.0

input: Test whether the compound COC(=O)[C@@H]1C=C[C@H](OC2OC(COC(C)=O)C(OC(C)=O)C(OC(C)=O)C2OC(C)=O)n2c(=O)c3ccccc3c(=O)n21 (stereo not given in full) records TGI of 30 µM or higher.
output: 0.0

###

system: MALME-3M melanoma; experiment: NCI tumour cell line growth inhibition, 48 h
outcome-measure: TGI

Some compounds with known TGI results, for comparison:
O=C(C=Nc1ccccc1C(=O)[O-])c1cccs1.O=C(C=Nc1ccccc1C(=O)[O-])c1cccs1.[Co+2]; > 100 µM
N#Cc1ncc(-c2ccc(C(F)(F)F)cc2)c(NCc2cc(C(F)(F)F)cc(C(F)(F)F)c2)n1; 8.89 µM
CCN(CC)CCCn1cnc2ncccc2c1=O; > 100 µM
O=C(Nc1ccccc1)c1nn(-c2cc(S(=O)(=O)O)c([N+](=O)[O-])cc2Cl)[n+](-c2cc(S(=O)(=O)[O-])c([N+](=O)[O-])cc2Cl)n1; > 100 µM
CCCc1cc(O)c2c3c(c(=O)oc2c1)CN(C)CC3; > 100 µM

I would be grateful if you could provide TGI for each of the following entries.
1. OC1(c2ccc(Cl)cc2)c2c(ccc3c2OCO3)C2=NCCN21 (stereo not given)
2. Cc1ccc(NP(=O)(Oc2ccccc2)N(CCCl)CCCl)cc1 (stereo not given)
3. CCOC(=O)C1C(c2ccc(OC)cc2)c2c([nH]n(-c3ccccc3)c2=O)CC1(O)OCC (stereo not given)
4. [Cl][Sn]([Cl])([c]1ccccc1)[c]1ccccc1
5. Nc1ccc(-c2cssc2=S)cc1

output:
["21.2 µM", "> 100 µM", "> 100 µM", "8.01 µM", "> 100 µM"]

###

Field: TGI. Provide a value for each of the compounds that follow.
tested on: HS 578T breast; assay: NCI tumour cell line growth inhibition, 48 h

Some compounds with known TGI results, for comparison:
c1ccc2c(c1)sc1c3cnccc3ccc21; > 100 µM
CCOC(=O)C[C@@H]1C2(C=C[C@@]13CO3)OCC(C)(C)CO2; > 100 µM
Cc1cc(NCCCNc2ccnc3cc(Cl)ccc23)nc(N2CCN(C)CC2)n1; 36.9 µM
CC(C)(O)C#Cc1ccc(/C=C/C(=O)c2ccccc2)s1; 79.7 µM
O=S(=O)(O)CCCC1S(=O)(=O)OCCOS1(=O)=O; > 100 µM

I would be grateful if you could provide TGI for each of the following entries.
1. N#Cc1cccc(OCc2nc(N)nc(N)c2-c2ccc(Cl)c(Cl)c2)c1
2. CC(C)c1nc2cc(C(F)(F)F)ccc2[nH]c1=O
3. COc1cc(/C=C2/SC(c3ccccc3)N(c3cccc(Cl)c3)C2=O)cc(OC)c1OC (stereo unspecified)
4. CN(C)c1nc2oc(-c3ccccc3)c(-c3ccccc3)c2c2nncn12
5. O=c1[nH]cnc2c1sc1nc3ccccc3n12

output:
["> 100 µM", "54.5 µM", "> 100 µM", "> 100 µM", "> 100 µM"]

Value of TGI reported for the compound COC(=O)C1CCOC(C)N1C(=O)OC(C)(C)C (stereo unspecified) is > 100 µM

###

system: SN12C renal; assay: NCI tumour cell line growth inhibition, 48 h
outcome-measure: TGI

Some molecules with known TGI results, for comparison:
COC(=O)C1=C(C)NC(C)=C(C(=O)OC)C1/C=C(\Cl)c1ccc(Cl)c(Cl)c1; 27.5 µM
COC(=O)[C@H](Cc1ccccc1)NC(=O)N1CCCN(C(=O)N[C@@H](Cc2ccccc2)C(=O)OC)CCCN(C(=O)N[C@@H](Cc2ccccc2)C(=O)OC)CCC1; 39.1 µM
N#Cc1cccc(OCc2nc(N)nc(N)c2-c2ccc(Cl)c(Cl)c2)c1; > 100 µM

I would be grateful if you could provide TGI for each of the following entries.
1. O=Cc1c2ccccc2n2ccc3c4ccccc4[nH]c3c12
2. CC(C)(C)OC(=O)NCC(=O)NC1c2ccsc2/C(=N/O)[C@H]1O (stereo not given in full)

output:
1: > 10 µM; 2: > 100 µM

I would be grateful if you could provide TGI for each of the following entries.
1. CC1(C)/C(=N\O)C2(C#N)CCC1C2 (stereo not given)
2. COc1cc2c(cc1OCCCCCOc1cc3c(cc1OC)C(=O)N1CC(F)C[C@H]1C=N3)N=C[C@@H]1CC(F)CN1C2=O (stereo not given in full)

output:
1: > 100 µM; 2: 0.952 µM

I would be grateful if you could provide TGI for each of the following entries.
1. O=C(Nc1ccc(F)cc1)Nc1ccccc1CNc1nc(Nc2ccc(OCCN3CCCC3)cc2)ncc1Cl
2. NC(=O)C#CC#CC#CCO
3. CC(C)CC[C@H](O)[C@@H](C)[C@H]1[C@@H](OC2OC(C)C(O)C(O)C2O)C[C@H]2[C@@H]3CC=C4C[C@@H](O)CC[C@]4(C)[C@H]3[C@@H](O)C[C@]12C (stereo not given in full)
4. Cn1ccc(C(=O)N2CCSC2=S)c(OCc2ccccc2)c1=O
5. COc1cc(-c2cc(=O)c3c(OC)c(OC)c(OC)cc3o2)c(OC)c(OC)c1OC
6. N#CC(C(=O)/C(=N/NC(=O)c1ccccc1O)C(C#N)c1ccccc1)c1ccccc1 (stereo not given)

output:
1. 2.01 µM
2. 3.76 µM
3. > 100 µM
4. > 100 µM
5. > 75 µM
6. > 100 µM

###

Field: TGI. Provide a value for each of the compounds that follow.
test system: NCI-H522 lung; test: NCI tumour cell line growth inhibition, 48 h

Some compounds with known TGI results, for comparison:
CSc1cccc(-n2c3nc(=O)n(C)c(=O)c-3nc3ccccc32)c1; 28.3 µM
Cn1c2c(c3ccccc31)CCN(CCN1CCN(c3ccccc3)CC1)C2=O; 92.9 µM

I would be grateful if you could provide TGI for each of the following entries.
1. N#Cc1n[nH]n(C2CCCCC2)c1=O
2. O=C(O)C1=CCCc2ccc3ccccc3c21

output:
["> 100 µM", "> 100 µM"]

I would be grateful if you could provide TGI for each of the following entries.
1. CCCCCCCc1cc(OC(=O)c2c(C)cc(OC)cc2O)cc(O)c1C(=O)O
2. COc1ccc(-n2cc(-c3cc(OC)c(OC)c(OC)c3)nc2SCc2ccccc2)cc1
3. CN(CCCCCl)P(=O)(OCc1ccc([N+](=O)[O-])o1)OCC1OC(n2ccc(N)nc2=O)C(F)(F)C1O (stereo unspecified)
4. Cc1ccc(S(=O)(=O)n2c3c(c4ccccc42)CCN2C(=O)C(S(=O)(=O)c4ccccc4)=CCC32)cc1 (stereo unspecified)
5. CCN1/C(=C/C=C/c2n(-c3ccccc3)c3ccc(-c4nc5ccccc5s4)cc3[n+]2CC)N(c2ccccc2)c2ccc(-c3nc4ccccc4s3)cc21
6. CCC1C(=O)OCc2c1cc1n(c2=O)Cc2cc3ccccc3nc2-1 (stereo unspecified)
7. Nc1cc(C(=O)O)[nH]c(=O)n1
8. COc1ccccc1/C=C(\C#N)C(=O)c1ccccc1

output:
1: 48.3 µM; 2: > 100 µM; 3: > 100 µM; 4: 0.567 µM; 5: 3.41 µM; 6: > 44.4 µM; 7: > 100 µM; 8: > 100 µM

I would be grateful if you could provide TGI for each of the following entries.
1. Cc1noc2cccc(OCc3ccccc3)c12
2. CC(=O)Oc1c(C)c2c(O)c3c1C1=C(OCOC1=C(C)C3=O)/C(C)=C\C(C)(O)C(O)C(C)C(O)C1C(=O)OC(C(C)C1O)C(C)(O)/C=C/C=C(C)C(=O)N2 (stereo unspecified)
3. CC(=O)c1c(SCCN2CCCC2)n(-c2ccccc2)c(=S)n(-c2ccccc2)c1=O
4. Nc1ccc(-c2cssc2=S)cc1

output:
["> 100 µM", "> 100 µM", "8.31 µM", "> 100 µM"]

I would be grateful if you could provide TGI for each of the following entries.
1. COc1ccc2c(c1O)C13CCN(C)C(C2)C1CCC1(C3)OCCO1 (stereo unspecified)
2. CCOCN1COCN=C1NC#N
3. O=C1C2C(C(=O)[N]1[Hg][c]1cccs1)C1(Cl)C(Cl)=C(Cl)C2(Cl)C1(Cl)Cl (stereo unspecified)
4. Nc1ncnc2c1ncn2Cc1ccc(C23CC4CC(CC(C4)C2)C3)c(OCc2cc(F)c(F)cc2F)c1

output:
1. > 100 µM
2. > 100 µM
3. 0.432 µM
4. > 100 µM

Value of TGI reported for the compound COc1ccc2c(c1)=C(C=C1C=CN(O)C=C1)C(=O)N=2 is 61.6 µM

Measured values drawn from PubChem BioAssay (NCI) for this set.
